Value source: patent US20250163167A1

Target: T1, human IL-10 receptor (hIL-10R alpha and beta chains) on HEK-Blue IL-10 reporter cells (human, UniProt Q13651 22-578; Q08334 20-325)
T1 sequence 1: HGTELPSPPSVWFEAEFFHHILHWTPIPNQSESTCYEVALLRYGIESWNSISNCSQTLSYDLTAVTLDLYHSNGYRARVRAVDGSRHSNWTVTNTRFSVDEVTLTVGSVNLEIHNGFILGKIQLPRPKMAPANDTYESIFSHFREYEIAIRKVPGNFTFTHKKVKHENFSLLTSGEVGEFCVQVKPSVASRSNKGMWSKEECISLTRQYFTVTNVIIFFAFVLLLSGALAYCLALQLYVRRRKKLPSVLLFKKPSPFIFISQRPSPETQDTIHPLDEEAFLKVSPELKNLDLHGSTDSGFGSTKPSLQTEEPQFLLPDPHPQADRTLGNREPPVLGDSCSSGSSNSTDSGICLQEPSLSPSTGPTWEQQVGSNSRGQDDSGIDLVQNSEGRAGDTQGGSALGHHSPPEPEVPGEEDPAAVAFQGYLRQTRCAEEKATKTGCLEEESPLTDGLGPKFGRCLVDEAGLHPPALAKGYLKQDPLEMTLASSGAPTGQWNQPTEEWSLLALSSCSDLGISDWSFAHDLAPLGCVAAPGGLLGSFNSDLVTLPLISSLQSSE
T1 sequence 2: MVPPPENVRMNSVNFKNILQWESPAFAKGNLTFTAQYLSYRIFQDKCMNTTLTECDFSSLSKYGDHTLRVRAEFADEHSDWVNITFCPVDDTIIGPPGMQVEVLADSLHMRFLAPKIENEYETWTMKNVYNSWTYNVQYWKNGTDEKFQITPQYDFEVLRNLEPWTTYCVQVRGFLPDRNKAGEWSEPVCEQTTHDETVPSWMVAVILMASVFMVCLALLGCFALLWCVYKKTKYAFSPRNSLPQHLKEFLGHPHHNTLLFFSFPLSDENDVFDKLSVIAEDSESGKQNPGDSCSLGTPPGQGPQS
Test: cell-based or functional assay
experimental-readout: Abs 630 (100 nM) (Abs 630)
Respond numerically; units are Abs 630 and should not be typed.

// query Abs 630 (100 nM) value for entry IL10R binding molecule of SEQ ID NO: 268 (bispecific antibody) QVQLQESGGGSVQAGGSLRLSCAASRFTYSSYCMGWFRQAPGKEREGVASIDSDGSTSYTDSVKGRFTISKDNAKNTLYLQMNSLKPEDTAMYYCALDLMSTVVPGFCGFLLSAGMDYWGKGTQVTVSSGGGSQVQLQESGGGSVQAGGSLRLSCAASGYSYSSYCMGWFRQAPGKEREGVATIDSDGMTRYADSVKGRFTISKDNAKNTLYLQMNSLKPEDTAMYYCAAPLYDCDSGAVGRNPPYWGQGTQVTVSSASHHHHHH
0.41

Request the reported Abs 630 (100 nM) associated with IL10R binding molecule of SEQ ID NO: 311 (bispecific antibody) QVQLQESGGGSVQAGGSLRLSCAASGYTYSSGCMGWFRQAPGKEREAVAAINSDGSTSYADSVKGRFTISKDNAKNTLYLQMNSLKPEDTAMYYCAAEPYCSGGYPRWSVAEFGYWGQGTQVTVSSGGGSQVQLQESGGGSVQAGGSLRLSCAASGYSNCSYDMTWYRQAPGKEREFVSAIHSDGSTRYADSVKGRFFISQDNAKNTVYLQMNSLKPEDTAMYYCKTDPLHCRAHGGSWYSVRANYWGQGTQVTVSSASHHHHHH
0.4

Can you share its Abs 630 (100 nM)? I mean this binder: IL10R binding molecule of SEQ ID NO: 346 (bispecific antibody) QVQLQESGGGSVQAGGSLRLSCAASGYSYSSYCMGWFRQAPGKEREGVATIDSDGMTRYADSVKGRFTISKDNAKNTLYLQMNSLKPEDTAMYYCAAPLYDCDSGAVGRNPPYWGQGTQVTVSSGGGSQVQLQESGGGSVQAGGSLRLSCAASGYSNCSYDMTWYRQAPGKEREFVSAIHSDGSTRYADSVKGRFFISQDNAKNTVYLQMNSLKPEDTAMYYCKTDPLHCRAHGGSWYSVRANYWGQGTQVTVSSASHHHHHH
0.35
